# MEASUREMENT_DESCRIPTION: in vitro
# CONDITION_LABEL: rat, gh3-tre-luc cells, AC50 (uM) modified / 1000
Where a name gives a salt, the structure may show the parent alone.
QUANTITY_NAME: CC50 at 24 h

[
  {
    "MOLECULE": "C[C@@H](NCCCc1cccc(C(F)(F)F)c1)c1cccc2ccccc12 [Cinacalcet hydrochloride]",
    "QUANTITY_NAME": "CC50 at 24 h",
    "REPORTED_VALUE": "5.95 µM"
  },
  {
    "MOLECULE": "CC(C)(CCl)c1ccccc1 [Neophyl chloride]",
    "QUANTITY_NAME": "CC50 at 24 h",
    "REPORTED_VALUE": "> 90 µM"
  },
  {
    "MOLECULE": "CCCCCCCCCCCCCCCCCCO [1-Octadecanol]",
    "QUANTITY_NAME": "CC50 at 24 h",
    "REPORTED_VALUE": "> 50 µM"
  },
  {
    "MOLECULE": "O=c1[nH]c(=O)c2ccccc2o1 [Carsalam]",
    "QUANTITY_NAME": "CC50 at 24 h",
    "REPORTED_VALUE": "> 50 µM"
  },
  {
    "MOLECULE": "Fc1ccc(Oc2ccnc3cc(Cl)cc(Cl)c23)cc1 [Quinoxyfen]",
    "QUANTITY_NAME": "CC50 at 24 h",
    "REPORTED_VALUE": "74.9 µM"
  },
  {
    "MOLECULE": "Cc1nc2ccccc2s1 [2-Methylbenzothiazole]",
    "QUANTITY_NAME": "CC50 at 24 h",
    "REPORTED_VALUE": "> 90 µM"
  },
  {
    "MOLECULE": "CC(C)CCCCCCOC(=O)c1ccccc1C(=O)OCCCCCCC(C)C [Diisononyl phthalate]",
    "QUANTITY_NAME": "CC50 at 24 h",
    "REPORTED_VALUE": "> 90 µM"
  },
  {
    "MOLECULE": "c1cnc(N2CCN(Cc3ccc4c(c3)OCO4)CC2)nc1 [Piribedil]",
    "QUANTITY_NAME": "CC50 at 24 h",
    "REPORTED_VALUE": "> 50 µM"
  },
  {
    "MOLECULE": "CCCCCC1Nc2cc(C(F)(F)F)c(S(N)(=O)=O)cc2S(=O)(=O)N1 (centres unmarked) [Penflutizide]",
    "QUANTITY_NAME": "CC50 at 24 h",
    "REPORTED_VALUE": "> 50 µM"
  },
  {
    "MOLECULE": "CC[C@H]1OC(=O)[C@H](C)[C@@H](O[C@H]2C[C@@](C)(OC)[C@@H](O)[C@H](C)O2)[C@H](C)[C@@H](O[C@@H]2O[C@H](C)C[C@H](N(C)C)[C@H]2O)[C@](C)(O)C[C@@H](C)C(=O)[C@H](C)[C@@H](O)[C@]1(C)O [Erythromycin]",
    "QUANTITY_NAME": "CC50 at 24 h",
    "REPORTED_VALUE": "> 70 µM"
  },
  {
    "MOLECULE": "Cn1cc[n+](CCO)c1",
    "QUANTITY_NAME": "CC50 at 24 h",
    "REPORTED_VALUE": "> 90 µM"
  },
  {
    "MOLECULE": "COC(=O)CC(C(C)=O)C(=O)OC (centres unmarked) [Dimethyl acetylsuccinate]",
    "QUANTITY_NAME": "CC50 at 24 h",
    "REPORTED_VALUE": "> 90 µM"
  },
  {
    "MOLECULE": "CC(C)OC(=O)CCC(=O)OC(C)C [Dipropan-2-yl butanedioate]",
    "QUANTITY_NAME": "CC50 at 24 h",
    "REPORTED_VALUE": "> 90 µM"
  },
  {
    "MOLECULE": "CCCCCC[C@@H](O)C/C=C\\CCCCCCCC(=O)OC [Methyl ricinoleate]",
    "QUANTITY_NAME": "CC50 at 24 h",
    "REPORTED_VALUE": "> 90 µM"
  },
  {
    "MOLECULE": "OCC(O)COc1ccc(Cl)cc1 (centres unmarked) [Chlorphenesin]",
    "QUANTITY_NAME": "CC50 at 24 h",
    "REPORTED_VALUE": "> 50 µM"
  },
  {
    "MOLECULE": "CCC(O)C(C)(C)C (centres unmarked) [2,2-Dimethyl-3-pentanol]",
    "QUANTITY_NAME": "CC50 at 24 h",
    "REPORTED_VALUE": "> 90 µM"
  },
  {
    "MOLECULE": "CC(C)(C)C(=O)CCl [1-Chloropinacolone]",
    "QUANTITY_NAME": "CC50 at 24 h",
    "REPORTED_VALUE": "> 90 µM"
  },
  {
    "MOLECULE": "CC(CO)(CO)CO",
    "QUANTITY_NAME": "CC50 at 24 h",
    "REPORTED_VALUE": "> 90 µM"
  },
  {
    "MOLECULE": "CC(=O)N1C[C@H](O)C[C@H]1C(=O)O [Oxaceprol]",
    "QUANTITY_NAME": "CC50 at 24 h",
    "REPORTED_VALUE": "> 50 µM"
  },
  {
    "MOLECULE": "CC(C)(C)C(=O)C(=O)O [3,3-Dimethyl-2-oxobutyric acid]",
    "QUANTITY_NAME": "CC50 at 24 h",
    "REPORTED_VALUE": "> 90 µM"
  }
]
